TEST SYSTEM: GCN2 kinase (Homo sapiens, UniProt Q9P2K8)
Sequence (Q9P2K8 whole entry): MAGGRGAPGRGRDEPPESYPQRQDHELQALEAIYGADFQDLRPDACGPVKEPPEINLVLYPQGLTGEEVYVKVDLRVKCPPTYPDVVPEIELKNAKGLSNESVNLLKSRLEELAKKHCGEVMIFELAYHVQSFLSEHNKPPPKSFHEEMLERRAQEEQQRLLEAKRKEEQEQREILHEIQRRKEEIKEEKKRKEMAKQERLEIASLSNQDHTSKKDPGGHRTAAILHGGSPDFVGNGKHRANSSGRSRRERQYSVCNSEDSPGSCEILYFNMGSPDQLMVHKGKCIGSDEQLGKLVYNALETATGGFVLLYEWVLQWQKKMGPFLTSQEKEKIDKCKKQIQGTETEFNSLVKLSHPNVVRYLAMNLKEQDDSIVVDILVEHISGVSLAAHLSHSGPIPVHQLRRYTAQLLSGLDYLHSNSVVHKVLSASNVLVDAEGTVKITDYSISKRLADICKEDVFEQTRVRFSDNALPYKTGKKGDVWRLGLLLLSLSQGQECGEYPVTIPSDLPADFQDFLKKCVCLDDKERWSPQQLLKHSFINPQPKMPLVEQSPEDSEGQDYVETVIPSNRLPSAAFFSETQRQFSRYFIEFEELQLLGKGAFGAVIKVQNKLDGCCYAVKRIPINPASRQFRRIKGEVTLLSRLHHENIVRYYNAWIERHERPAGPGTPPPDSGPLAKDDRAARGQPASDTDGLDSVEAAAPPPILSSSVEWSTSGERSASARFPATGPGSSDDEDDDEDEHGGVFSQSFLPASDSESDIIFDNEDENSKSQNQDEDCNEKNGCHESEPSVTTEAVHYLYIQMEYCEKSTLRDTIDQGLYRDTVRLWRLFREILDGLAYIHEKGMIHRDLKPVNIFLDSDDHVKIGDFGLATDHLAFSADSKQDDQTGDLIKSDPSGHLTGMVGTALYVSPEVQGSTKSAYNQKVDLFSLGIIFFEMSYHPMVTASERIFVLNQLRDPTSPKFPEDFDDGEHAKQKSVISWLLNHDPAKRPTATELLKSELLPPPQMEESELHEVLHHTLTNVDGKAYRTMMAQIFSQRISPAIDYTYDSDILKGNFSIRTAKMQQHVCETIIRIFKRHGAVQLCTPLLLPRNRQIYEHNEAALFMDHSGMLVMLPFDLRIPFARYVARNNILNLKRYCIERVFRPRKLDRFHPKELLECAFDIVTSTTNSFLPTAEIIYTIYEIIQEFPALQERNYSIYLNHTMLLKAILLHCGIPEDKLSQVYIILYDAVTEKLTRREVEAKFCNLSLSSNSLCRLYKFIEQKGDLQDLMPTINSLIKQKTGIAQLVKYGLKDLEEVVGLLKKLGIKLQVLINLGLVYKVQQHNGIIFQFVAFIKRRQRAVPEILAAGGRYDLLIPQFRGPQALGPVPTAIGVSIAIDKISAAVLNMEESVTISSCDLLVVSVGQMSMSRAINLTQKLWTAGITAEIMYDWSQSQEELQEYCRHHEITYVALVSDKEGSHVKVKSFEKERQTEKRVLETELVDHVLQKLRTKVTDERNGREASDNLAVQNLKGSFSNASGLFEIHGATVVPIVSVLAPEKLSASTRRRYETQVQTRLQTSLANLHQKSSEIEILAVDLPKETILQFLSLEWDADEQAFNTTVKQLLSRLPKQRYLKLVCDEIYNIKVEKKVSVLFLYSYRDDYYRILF
PROTOCOL DETAILS: GCN2 enzyme inhibition assay (Transcreener ADP2 fluorescence polarization)
Assay type: biochemical
STATED CONDITIONS: compounds of Formula II; 280 μM ATP, 4 nM GCN2 kinase
RECORDED METRIC: Ki

Example compounds with recorded Ki:
CC1CN(c2cc(-c3cnc4ccc(C(F)F)nn34)ncn2)CC(CNS(C)(=O)=O)N1 (centres unmarked)
10 to 1000 nM
Cc1noc([C@@H]2CN(c3cc(-c4cnc5ccc(C(F)(F)F)nn45)ccn3)C[C@H](C)O2)n1 [II-739]
10 to 1000 nM
CS(=O)(=O)NCC1CN(c2ccnc(-c3cnc4ccc(C(F)F)nn34)c2)CCC1(F)F (centres unmarked)
< 10 nM
C[C@H]1[C@@H](N=S(C)(C)=O)CCCN1c1cc(-c2cnc3ccc(C(F)F)nn23)ncn1 (single isomer, unassigned)
< 10 nM
CC1CC(C(N)=O)C(C)N(c2cc(-c3cnc4ccc(C(F)(F)F)nn34)ncn2)C1 (single isomer, unassigned) [II-718]
10 to 1000 nM
CS(=O)(=O)NCC1CN(c2cc(-c3cnc4ccc(C(F)F)nn34)ccn2)CCN1 (centres unmarked)
10 to 1000 nM
CC(=O)N1CCN(c2cc(-c3cnc4ccc(C)nn34)ccn2)CC1
10 to 1000 nM
NC(=O)C1CN(c2cc(-c3cnc4ccc(C(F)F)nn34)ncn2)CCO1 (centres unmarked)
10 to 1000 nM
CC1CC(N=S(C)(C)=O)CN(c2cc(-c3cnc4ccc(C#N)nn34)ncn2)C1 (centres unmarked) [II-703]
< 10 nM
CC1NCCN(c2cc(-c3cnc4ccc(C(F)F)nn34)ncn2)C1C (centres unmarked)
> 1000 nM

Attention now turns to another entry.
Provide the documented Ki with GCN2 kinase (Homo sapiens, UniProt Q9P2K8) as the system for CC1CC(P(C)(C)=O)CN(c2cc(-c3cnc4ccc(C(F)F)nn34)ncn2)C1 (centres unmarked) [II-710] 10 to 1000 nM

###

TEST SYSTEM: GCN2 kinase (Homo sapiens)
PROTOCOL DETAILS: GCN2 enzyme inhibition assay (Transcreener ADP2 fluorescence polarization)
Type: biochemical
STATED CONDITIONS: compounds of Formula II; 280 μM ATP, 4 nM GCN2 kinase
pIC50: −log10 of the molar value.
# pIC50 listing for each entry below

Example molecules with recorded pIC50:
Cc1[nH]ncc1C1CN(c2cc(-c3cnc4ccc(C(F)(F)F)nn34)ncn2)CC(C)O1 (stereo not drawn)
6.00 to 8.00
C[C@H]1[C@@H](CNS(C)(=O)=O)CCCN1c1cc(-c2cnc3ccc(C(F)F)nn23)ncn1 (stereo in doubt)
< 6.00
C[C@H]1[C@H](CNS(C)(=O)=O)CCCN1c1cc(-c2cnc3ccc(C(F)F)nn23)ncn1
< 6.00
C[C@@H]1[C@@H](CNS(C)(=O)=O)N(C2CC2)CCN1c1cc(-c2cnc3ccc(C(F)F)nn23)ncn1
6.00 to 8.00
Cc1[nH]ncc1[C@@H]1CN(c2cc(-c3cnc4ccc(C(F)(F)F)nn34)ncn2)C[C@H](C)O1
6.00 to 8.00
Cc1[nH]ncc1[C@H]1CN(c2cc(-c3cnc4ccc(C(F)(F)F)nn34)ncn2)C[C@H](C)O1
6.00 to 8.00

Bench note: what pIC50 did Cc1nn(C)cc1C1CN(c2cc(-c3cnc4ccc(C(F)(F)F)nn34)ncn2)C[C@@H](C)O1 (stereo in doubt) [II-760] show? 6.00 to 8.00

Bench note: what pIC50 did C[C@@H]1[C@H](CNS(C)(=O)=O)CCCN1c1cc(-c2cnc3ccc(C(F)F)nn23)ncn1 (stereo in doubt) show? < 6.00

Bench note: what pIC50 did `C[C@H](NS(C)(=O)=O)[C@@H]1CN(c2cc(-c3cnc4ccc(C(F)F)nn34)ncn2)CCO1` show? 6.00 to 8.00

###

TEST SYSTEM: GCN2 kinase (Homo sapiens, UniProt Q9P2K8)
PROTOCOL DETAILS: GCN2 enzyme inhibition assay (Transcreener ADP2 fluorescence polarization)
Type: biochemical
STATED CONDITIONS: compounds of Formula II; 280 μM ATP, 4 nM GCN2 kinase
RECORDED METRIC: Ki

Example compounds with recorded Ki:
CS(=O)(=O)NC[C@@H]1CN(c2cc(-c3cnc4ccc(C(F)F)nn34)ncn2)C[C@@H](C(F)(F)F)O1
10 to 1000 nM
NC(=O)C1CCCN(c2cc(-c3cnc4ccc(C(F)F)nn34)ncn2)C1 (centres unmarked)
10 to 1000 nM
CC1C(CNS(C)(=O)=O)CN(c2cc(-c3cnc4ccc(C(F)F)nn34)ncn2)CC1(F)F (centres unmarked) [II-381]
< 10 nM

Bench note: what Ki did FC(F)(F)c1ccc2ncc(-c3cc(N4CCCC(c5c[nH]cn5)C4)ncn3)n2n1 (centres unmarked) show? 10 to 1000 nM

Bench note: what Ki did CC1CN(c2cc(-c3cnc4ccc(C(F)F)nn34)ncn2)C(C)C(CNS(C)(=O)=O)N1 (centres unmarked) show? < 10 nM

Bench note: what Ki did CC1C(N=S(C)(C)=O)CCCN1c1cc(-c2cnc3ccc(C(F)F)nn23)ncn1 (single isomer, unassigned) [II-594] show? 10 to 1000 nM

Bench note: what Ki did C[C@H](NS(C)(=O)=O)[C@@H]1CN(c2cc(-c3cnc4ccc(C(F)F)nn34)ncn2)CCO1 (single isomer, unassigned) show? < 10 nM

Bench note: what Ki did CS(=O)(=O)NCCC1CCN(c2cc(-c3cnc4ccc(C(F)F)nn34)ncn2)C1 (centres unmarked) show? 10 to 1000 nM

###

TEST SYSTEM: GCN2 kinase (Homo sapiens, UniProt Q9P2K8)
PROTOCOL DETAILS: GCN2 enzyme inhibition assay (Transcreener ADP2 fluorescence polarization)
Type: biochemical
STATED CONDITIONS: compounds of Formula II; 280 μM ATP, 4 nM GCN2 kinase
pIC50: −log10 of the molar value.
RECORDED METRIC: pIC50

Cc1[nH]ncc1[C@H]1CN(c2cc(-c3cnc4ccc(C(F)(F)F)nn34)ncn2)C[C@@H](C)O1
> 8.00
C[C@@H]1[C@H](CNS(C)(=O)=O)N(C2CC2)CCN1c1cc(-c2cnc3ccc(C(F)F)nn23)ncn1
6.00 to 8.00
Cc1[nH]ncc1[C@@H]1CN(c2cc(-c3cnc4ccc(C(F)(F)F)nn34)ncn2)C[C@@H](C)O1
6.00 to 8.00

Attention now turns to another entry.
Bench note: what pIC50 did `CS(=O)(=O)NC[C@@H]1CN(c2cc(-c3cnc4ccc(C(F)F)nn34)ncn2)C[C@H](C(F)(F)F)O1` show? 6.00 to 8.00

###

# Ki listing for each entry below
TEST SYSTEM: GCN2 kinase (Homo sapiens, UniProt Q9P2K8)
PROTOCOL DETAILS: GCN2 enzyme inhibition assay (Transcreener ADP2 fluorescence polarization)
Assay type: biochemical
STATED CONDITIONS: compounds of Formula II; 280 μM ATP, 4 nM GCN2 kinase

Example compounds with recorded Ki:
CC1C(CNS(C)(=O)=O)N(C)C(C)CN1c1cc(-c2cnc3ccc(C(F)F)nn23)ncn1 (centres unmarked)
< 10 nM
CC1CN(c2cc(-c3cnc4ccc(C(F)(F)F)nn34)ncn2)C(C)C(c2cn[nH]c2)N1 (centres unmarked) [II-698]
< 10 nM
Cc1cc(-c2cnc3ccc(C(F)F)nn23)cc(N2CCCC(CNS(C)(=O)=O)C2)n1 (centres unmarked)
< 10 nM
CC1CC(CNS(C)(=O)=O)CN(c2cc(-c3cnc4ccc(C(F)F)nn34)ncn2)C1 (single isomer, unassigned) [II-436]
10 to 1000 nM
CS(=O)(=O)NCC1CCCN(c2cc(-c3cnc4ccc(C(F)F)nn34)ccc2C#N)C1 (centres unmarked)
10 to 1000 nM
CC1CN(c2cc(-c3cnc4ccc(C(F)(F)F)nn34)ncn2)C(C)C(c2cn[nH]c2)N1 (centres unmarked) [II-705]
< 10 nM
O=S(=O)(NCC1CCCN(c2cc(-c3cnc4ccc(C(F)F)nn34)ncn2)C1)C(F)(F)F (centres unmarked)
10 to 1000 nM

Attention now turns to another entry.
Bench note: what Ki did FC(F)c1ccc2ncc(-c3cc(N4CCOC(Cn5cncn5)C4)ncn3)n2n1 (centres unmarked) show? 10 to 1000 nM

###

# IC50 listing for each entry below
TEST SYSTEM: intracellular GCN2 (phosphorylation of the GCN2 substrate eIF2α) (Homo sapiens, UniProt Q9P2K8)
PROTOCOL DETAILS: GCN2 cellular inhibition assay (AlphaScreen SureFire P-eIF2α Ser51, borrelidin-treated U2OS cells)
Type: cell-based
STATED CONDITIONS: compounds of Formula II; biomarker assay, phosphorylated eIF2α Ser51 in borrelidin-treated U2OS cells

CC1C(CO)CCCN1c1cc(-c2cnc3ccc(C(F)F)nn23)ncn1 (single isomer, unassigned) [II-393]
> 5 µM

Bench note: what IC50 did OCCC1CCCN(c2cc(-c3cnc4ccc(C(F)(F)F)nn34)ncn2)C1 (centres unmarked) show? 0.5 to 5 µM

Bench note: what IC50 did NC(=O)CCC1CCCN(c2cc(-c3cnc4ccc(C(F)F)nn34)ncn2)C1 (centres unmarked) show? 0.5 to 5 µM

Bench note: what IC50 did CS(=O)(=O)NCC1CN(c2cc(-c3cnc4ccc(C(F)F)nn34)ncn2)CC(C2CC2)O1 (centres unmarked) [II-441] show? 0.5 to 5 µM

Bench note: what IC50 did `O=C1CN(c2cc(-c3cnc4ccc(C(F)F)nn34)ccn2)CCN1` show? > 5 µM

Bench note: what IC50 did `O=C1CCC2(CCN(c3cc(-c4cnc5ccc(C(F)F)nn45)ncn3)CC2)CN1` show? 0.5 to 5 µM

Bench note: what IC50 did CC1CN(c2cc(-c3cnc4ccc(C(F)F)nn34)ncn2)CC(CNS(C)(=O)=O)C1(F)F (centres unmarked) [II-45] show? < 0.5 µM

Bench note: what IC50 did CS(=O)(=O)NCC1CCCN(c2cc(-c3cnc4ccc(C(F)F)nn34)cc(N3CC4(COC4)C3)n2)C1 (centres unmarked) show? 0.5 to 5 µM

Every entry's value here was drawn from patent US10988477B2.
